Test system: giant foxtail
Experiment: Test B pre/postemergence giant foxtail
Format: in vivo, Setaria faberii
Conditions: Rate 500 g/ha, Preemergence; scale 0 to 10 (0 no effect, 10 complete control)
result_type: Giant foxtail plant response rating

compound: CCOC(CC)n1c(=O)on(C(=O)N(c2ccccc2)C(C)C)c1=O (stereo not shown)
result_type: Giant foxtail plant response rating
result: 0

compound: C#CCn1c(=O)on(C(=O)N(c2ccc(F)cc2F)C(C)C)c1=O
result_type: Giant foxtail plant response rating
result: 10

compound: CC(C)N(C(=O)n1oc(=O)n(C(C)C2=NOCC2)c1=O)c1ccccc1 (racemic)
result_type: Giant foxtail plant response rating
result: 10

compound: CC(C)N(C(=O)n1oc(=O)n(CCCCCl)c1=O)c1ccc(Cl)cc1
result_type: Giant foxtail plant response rating
result: 10

###

Tested on: rape
Test: Test B pre/postemergence rape
Format: in vivo, Brassica napus
Details: Postemergence, Rate 250 g/ha; scale 0 to 10, 0 is no effect, 10 is complete control
Measured Plant response rating, Rape, listed per entry for reference.

molecule: CCOC(=O)C(C)N(C(=O)n1oc(=O)n(C)c1=O)c1ccc(F)cc1 (stereo not shown)
target_of_assay: rape
Plant response rating, Rape: 0
--
molecule: CC(C)N(C(=O)n1oc(=O)n(N2C(C)CCCC2C)c1=O)c1ccc(F)cc1F (stereo not shown)
target_of_assay: rape
Plant response rating, Rape: 0
--
molecule: CC1CC1n1c(=O)on(C(=O)N(c2ccc(F)cc2F)C(C)C)c1=O (stereo not shown)
target_of_assay: rape
Plant response rating, Rape: 3
--
molecule: CC(C)N(C(=O)n1oc(=O)n(CC2CCOC2)c1=O)c1ccc(F)cc1 (stereo not shown)
target_of_assay: rape
Plant response rating, Rape: 0

###

Measured Plant response rating, Cocklebur, listed per entry for reference.
Tested on: cocklebur
Test: Test B pre/postemergence cocklebur
Assay type: in vivo, Xanthium strumarium
Details: Postemergence, Rate 62 g/ha; scale 0 to 10, 0 is no effect, 10 is complete control
result_type: Plant response rating, Cocklebur

molecule: CC(CBr)Cn1c(=O)on(C(=O)N(c2ccc(F)cc2)C(C)C)c1=O (centres unmarked)
recorded_number: 0
//
molecule: CC(C)N(C(=O)n1oc(=O)n(CCCCl)c1=O)c1ccc(F)cc1
recorded_number: 1
//
molecule: CCOC(CC)n1c(=O)on(C(=O)N(c2ccccc2)C(C)C)c1=O (centres unmarked)
recorded_number: 0
//
molecule: C#CC(C)n1c(=O)on(C(=O)N(c2ccccc2)C(C)C)c1=O (centres unmarked)
recorded_number: 0
//
molecule: CC(C)N(C(=O)n1oc(=O)n(C(C)C(=S)N(C)C)c1=O)c1ccc(F)cc1F (centres unmarked)
recorded_number: 2

###

Measured Plant response rating, Soybean, listed per entry for reference.
Test system: soybean
Assay: Test B pre/postemergence soybean
Format: in vivo, Glycine max
Details: Preemergence, Rate 62 g/ha; scale of 0 to 10 where 0 is no effect and 10 is complete control
result_type: Plant response rating, Soybean

compound: CC(C)N(C(=O)n1oc(=O)n(CCC2OCCCO2)c1=O)c1ccc(Cl)cc1
recorded_number: 0

compound: CCc1nc(C)c(C(C)n2c(=O)on(C(=O)N(c3ccc(F)cc3)C(C)C)c2=O)s1 (stereo not shown)
recorded_number: 0

compound: CC(C)N(C(=O)n1oc(=O)n(CC2CC2)c1=O)c1ccc(F)cc1F
recorded_number: 0

compound: CC(C)N(C(=O)n1oc(=O)n(CCCNC(=O)CCl)c1=O)c1ccccc1
recorded_number: 0

###

System: wheat
Test: Test B pre/postemergence wheat
Assay type: in vivo, Triticum aestivum
Details: Preemergence, Rate 500 g/ha; scale of 0 to 10 where 0 is no effect and 10 is complete control
Description: […] At the same time, these crop and weed species were also treated with postemergence applications of test chemicals formulated in the same manner. […] Treated plants and controls were maintained in a greenhouse for twelve to sixteen days, after which all species were compared to controls and visually evaluated. […]
result_type: Plant response rating, Wheat

molecule: COP(=O)(CCn1c(=O)on(C(=O)N(c2ccc(F)cc2)C(C)C)c1=O)OC [Compound 662]
target_of_assay: wheat
result_type: Plant response rating, Wheat
recorded_number: 0
--
molecule: CC(C)N(C(=O)n1oc(=O)n(CCC2OCCO2)c1=O)c1ccc(F)cc1 [Compound 219]
target_of_assay: wheat
result_type: Plant response rating, Wheat
recorded_number: 9
--
molecule: CC(C)N(C(=O)n1oc(=O)n(CC(C)[N+](=O)[O-])c1=O)c1ccc(F)cc1F (stereo not shown) [Compound 603]
target_of_assay: wheat
result_type: Plant response rating, Wheat
recorded_number: 0
--
molecule: Cc1ccccc1-n1c(=O)on(C(=O)N(c2ccc(C(C)C)cc2)C(C)C)c1=O [Compound 231]
target_of_assay: wheat
result_type: Plant response rating, Wheat
recorded_number: 0

###

Tested on: giant foxtail
Assay: Test B pre/postemergence giant foxtail
Assay type: in vivo, Setaria faberii
Conditions: Rate 250 g/ha; Postemergence
result_type: Plant response rating (0 to 10; 0 is no effect, 10 is complete control), Giant foxtail

compound: CC(C)N(C(=O)n1oc(=O)n(COCc2ccccc2)c1=O)c1ccc(F)cc1 [Compound 261]
result: 0

compound: [2H]C([2H])([2H])n1c(=O)on(C(=O)N(c2ccc(F)cc2)C(C)C)c1=O [Compound 245]
result: 8

compound: Cc1nc(C)c(Cn2c(=O)on(C(=O)N(c3ccc(F)cc3F)C(C)C)c2=O)s1 [Compound 233]
result: 3

compound: Cc1ccccc1-n1c(=O)on(C(=O)N(c2ccc(F)cc2Cl)C(C)C)c1=O [Compound 186]
result: 0

###

System: giant foxtail
Test: Test B pre/postemergence giant foxtail
Format: in vivo, Setaria faberii
Details: Preemergence, Rate 500 g/ha; scale of 0 to 10 where 0 is no effect and 10 is complete control
result_type: Plant response rating, Giant foxtail

compound: Cc1nc(C)c(-n2c(=O)on(C(=O)N(c3ccc(F)cc3)C(C)C)c2=O)s1 [Compound 198]
result_type: Plant response rating, Giant foxtail
recorded_number: 3
--
compound: CC(C)N(C(=O)n1oc(=O)n(COCc2ccccc2)c1=O)c1ccc(F)cc1 [Compound 261]
result_type: Plant response rating, Giant foxtail
recorded_number: 9
--
compound: COC(C)n1c(=O)on(C(=O)N(c2ccc(F)cc2F)C(C)C)c1=O (stereo not drawn) [Compound 593]
result_type: Plant response rating, Giant foxtail
recorded_number: 0

###

Tested on: sugar beet
Experiment: Test B pre/postemergence sugar beet
Assay type: in vivo, Beta vulgaris
Conditions: Preemergence, Rate 62 g/ha; scale 0 to 10 (0 no effect, 10 complete control)
Experimental: […] At the same time, these crop and weed species were also treated with postemergence applications of test chemicals formulated in the same manner. […] Treated plants and controls were maintained in a greenhouse for twelve to sixteen days, after which all species were compared to controls and visually evaluated. […]

compound: CC(C)N(C(=O)n1oc(=O)n(C)c1=O)c1ccc(F)cc1F [Compound 368]
Plant response rating, Sugarbeets: 6
--
compound: CC(C)N(C(=O)n1oc(=O)n(CC#N)c1=O)c1ccc(F)cc1 [Compound 395]
Plant response rating, Sugarbeets: 0
--
compound: COCC(C)n1c(=O)on(C(=O)N(c2ccc(F)cc2F)C(C)C)c1=O (centres unmarked) [Compound 357]
Plant response rating, Sugarbeets: 2
--
compound: CC(C)N(C(=O)n1oc(=O)n(CC2(C)COC2)c1=O)c1ccccc1 [Compound 420]
Plant response rating, Sugarbeets: 0
--
compound: CC(C)N(C(=O)n1oc(=O)n(CC2CCOC2)c1=O)c1ccc(F)cc1 (centres unmarked) [Compound 375]
Plant response rating, Sugarbeets: 0

###

Test system: surinam grass
Experiment: Test B pre/postemergence surinam grass
Assay type: in vivo, Brachiaria decumbens
Conditions: Preemergence, Rate 250 g/ha; scale of 0 to 10 where 0 is no effect and 10 is complete control

cpd_smiles: CCN(CC)C(=O)n1oc(=O)n(-c2ccc(F)cc2)c1=O
Plant response rating, B. signalgrass: 0

cpd_smiles: COc1ccc(-n2c(=O)on(C(=O)N(c3ccc(F)cc3)C(C)C)c2=O)c(OC)c1
Plant response rating, B. signalgrass: 7

cpd_smiles: Cc1ccccc1-n1c(=O)on(C(=O)N(c2ccc(F)cc2)C2CC2)c1=O
Plant response rating, B. signalgrass: 0

cpd_smiles: Cc1nn(C)c(C)c1-n1c(=O)on(C(=O)N(c2ccc(F)cc2F)C(C)C)c1=O
Plant response rating, B. signalgrass: 2

###

System: crabgrass
Test: Test B pre/postemergence crabgrass
Assay type: in vivo, Digitaria sanguinalis
Conditions: Preemergence, Rate 62 g/ha; scale of 0 to 10 where 0 is no effect and 10 is complete control
Measured Crabgrass plant response rating, listed per entry for reference.
result_type: Crabgrass plant response rating

compound: CCCCCCn1c(=O)on(C(=O)N(c2ccc(F)cc2F)C(C)C)c1=O [Compound 637]
recorded_number: 9
//
compound: CC(C)N(C(=O)n1oc(=O)n(CCCCF)c1=O)c1ccc(F)cc1 [Compound 289]
recorded_number: 2
//
compound: CC(C)N(C(=O)n1oc(=O)n(C2CC3CCC2C3)c1=O)c1ccccc1 (stereo not shown) [Compound 328]
recorded_number: 0
//
compound: Cc1cccc(C(C)(C)C)c1-n1c(=O)on(C(=O)N(c2ccccc2)C(C)C)c1=O [Compound 303]
recorded_number: 0
